tested on: Klebsiella pneumoniae; conditions: Concentration 20 uM; ASSAY_TEST Inhibition of Bacterial Growth; detection method Absorption (OD600); MEDIA CAMHB; plate type 384well; NBS; CORNING #3640; time 18 hr
Description: Antibacterial activity against Klebsiella pneumoniae MDR ATCC 70063 (CO-ADD:GN_003); MIC in CAMBH media using NBS plates, by OD(600)
Entries with a potency or affinity are not part of this list.
Provide the reported Inhibition of each item.
One number for each entry, in %.

Known results for compounds:
> print(dat)
                                    compound  units.of.measure  measurement
 1        Nc1ncnc2[nH]nc(Cc3cccc4ccccc34)c12                 %        12.26
 2  Cc1ccc(S(=O)(=O)Nc2ccc(CN3CCN(C(=O)c4cccc(C#N)c4)CC3)cc2)cc1                 %        10.93
 3  COc1ccc(-c2onc(C(F)(F)F)c2-c2ccc(Cl)cc2)c(O)c1                 %         9.85
 4  CCOc1ccccc1C(=O)Nc1cccc(-c2nc3ncccn3c2C)c1                 %        11.04
 5  COc1cc(OC)cc(C(=O)NCC2Cc3cc(Cl)cc(-c4ccncc4)c3O2)c1 (stereo unspecified)                 %         8.14
 6    O=C(c1ccc(F)cc1)N(CCNc1ccccc1)c1ccccc1                 %        12.15
 7  COc1ccc(-c2cncc3ccc(C(=O)NCCCn4ccnc4)nc23)cc1                 %         3.32
 8  CN1CCN(c2nccc3nc(-c4ccc(F)c(F)c4)[nH]c23)CC1                 %        17.85
 9  CN1CCC(NCc2cccc(-c3ccc(S(=O)(=O)NCc4ccccc4)cc3)c2)CC1                 %         9.08
10  COc1ccc(CCN2CCC(NCc3cccc(N(C)C)c3)CC2)cc1                 %         7.89

Proceeding to the next compound to report its Inhibition.
q: Need Inhibition of Cc1cc(O)nc(-n2nc(C)cc2C)n1 , thanks.
a: 12

---

system: Candida albicans; conditions: 20 µM
Description: Antifungal activity against Candida albicans ATCC 90028 (CO-ADD:FG_001); MIC in YNB media using NBS plates, by OD630
Results with a measured potency or affinity are listed apart.
Record form. Attribute: Inhibition. Fill in for each entry.
One number for each entry, in %.

Worked set:
> print(dat)
                                   compound  units.of.measure  measurement
1    OCCc1ccc(Nc2nccc(-c3nnc4ccccn34)n2)cc1                 %         3.06
2  FC(F)(F)c1cc(NCCc2ccccc2)nc(-c2ccccn2)n1                 %         1.73
3  COc1ccc(OC(C)C(=O)Nc2ccc(Cl)cc2C)cc1 (configuration not stated)                 %         7.33
4  c1ccc(-c2[nH]c3ccccc3c2C(c2ccccn2)N2CCCC2)cc1 (configuration not stated)                 %         1.35
5  CC1=Nc2ccc(Cl)cc2C(O)(c2ccc(C)cc2)N1CCN1CCCCC1 (configuration not stated)                 %         3.13

Could I get Inhibition for every one of these entries?
1. O=C(Cn1ccnc1[N+](=O)[O-])NCc1ccccc1 [BENZNIDAZOLE]
2. Cc1ccc(S(=O)(=O)N2CCN(C(=O)c3cc(-c4ccccc4)n[nH]3)CC2)cc1
3. CCN(CC)CCCN1CCN(C(=O)c2cccc(-c3noc(C(F)(F)F)n3)c2)CC1
4. O=C(Nc1nc(-c2ccccn2)cs1)c1cncn1-c1ccccc1
5. Cc1ccc(-c2nc(CN(Cc3ccccn3)C(C)C)cs2)o1
6. CC1CC1C(=O)NC1CCN(CC2(c3ccccc3)CCCCC2)CC1 (configuration not stated)
7. Cc1noc(C)c1COc1cccc(C(=O)N=c2[nH]cccc2C)c1
8. COc1cc(Br)cc2cc(C(=O)Nc3cccc(C(F)(F)F)c3)c(=O)oc12

a:
[2.82, 6.95, 1.48, 1.74, 5.03, 3.19, 1.92, 3.09]
